# Assay summary: Human pharmacokinetics, multiple administration (Day 14)
# Format: in vivo
# Settings: human, plasma, oral; multiple administration, 14th day, across 25-200 mg; read-out: geometric mean half-life
Reported endpoint: half-life

>>> df
                                 smiles_str  recorded_value
0  O[C@H]1CCCN[C@@H]1CCCn1cnc2c(Cl)c(Cl)ccc21   4.4 to 12.3 h

====

# Assay summary: Human pharmacokinetics, single administration
# Format: in vivo
# Settings: human, plasma; healthy adults, single oral 300 mg, enteric coated capsules, empty stomach
Reported endpoint: AUC(0-t) (ng·h/mL)

>>> df
                                   compound  recorded_value
0  O[C@H]1CCCN[C@@H]1CCCn1cnc2c(Cl)c(Cl)ccc21 [Active component]            1480

Source listed as patent US20240238278A1.
